# reported IC50; entries follow
Target: Potassium voltage-gated channel subfamily H member 2 (Homo sapiens)
Sequence (Q12809 whole entry): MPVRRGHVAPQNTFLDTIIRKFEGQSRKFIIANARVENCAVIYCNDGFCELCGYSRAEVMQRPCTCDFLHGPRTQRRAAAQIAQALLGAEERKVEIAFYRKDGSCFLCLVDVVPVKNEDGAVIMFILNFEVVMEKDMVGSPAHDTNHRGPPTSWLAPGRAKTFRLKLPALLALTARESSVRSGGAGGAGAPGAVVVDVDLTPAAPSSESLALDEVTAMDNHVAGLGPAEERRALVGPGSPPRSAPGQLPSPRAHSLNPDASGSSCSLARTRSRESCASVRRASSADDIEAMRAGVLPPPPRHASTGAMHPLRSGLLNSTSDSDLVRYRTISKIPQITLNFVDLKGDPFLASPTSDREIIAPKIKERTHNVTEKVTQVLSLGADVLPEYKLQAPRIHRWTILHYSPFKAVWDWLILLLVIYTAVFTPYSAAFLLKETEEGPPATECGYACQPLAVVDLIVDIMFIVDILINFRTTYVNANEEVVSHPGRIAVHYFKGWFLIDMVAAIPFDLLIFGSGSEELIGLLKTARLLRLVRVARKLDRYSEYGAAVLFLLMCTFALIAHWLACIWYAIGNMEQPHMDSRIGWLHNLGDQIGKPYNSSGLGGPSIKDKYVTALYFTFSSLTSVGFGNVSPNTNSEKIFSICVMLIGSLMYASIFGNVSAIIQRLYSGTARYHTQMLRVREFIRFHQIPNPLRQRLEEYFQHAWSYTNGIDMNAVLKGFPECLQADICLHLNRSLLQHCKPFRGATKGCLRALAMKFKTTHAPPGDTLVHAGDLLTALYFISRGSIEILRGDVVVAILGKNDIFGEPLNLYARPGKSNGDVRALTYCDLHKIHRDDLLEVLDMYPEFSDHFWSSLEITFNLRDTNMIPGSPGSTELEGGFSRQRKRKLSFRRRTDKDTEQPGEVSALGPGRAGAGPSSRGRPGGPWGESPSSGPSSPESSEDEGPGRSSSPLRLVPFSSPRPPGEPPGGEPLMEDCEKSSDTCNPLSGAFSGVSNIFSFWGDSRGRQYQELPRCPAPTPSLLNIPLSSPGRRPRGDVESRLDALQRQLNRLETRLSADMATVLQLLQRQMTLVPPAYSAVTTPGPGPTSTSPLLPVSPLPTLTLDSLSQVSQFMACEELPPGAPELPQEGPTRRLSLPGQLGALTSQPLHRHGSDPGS
Assay: hERG Qpatch Assay
observable: IC50

| compound | target-desc | measurement |
| --- | --- | --- |
| O=C1Nc2c(F)cc([C@@H](O)CN3C[C@H]4C[C@H](Oc5ccccc5)C[C@@]4(O)C3)cc2CO1 [US20240208953, Example 28A] | Potassium voltage-gated channel subfamily H member 2 (Homo sapiens) | 2.4 µM |
| O=C1CCc2cc([C@H](O)CN3C[C@H]4C[C@H](Oc5ccccc5F)C[C@@]4(O)C3)cc(F)c2N1 [US20240208953, Example 29B] | Potassium voltage-gated channel subfamily H member 2 (Homo sapiens) | 12.5 µM |
